Sourced from patent US20250289894A1

# Test target: T1, Human a7 Genu Calf 1-2 (human, UniProt Q13683 679-1078, limits assumed)
# T1 construct: domain: Genu Calf 1-2
# T1 sequence (looked up): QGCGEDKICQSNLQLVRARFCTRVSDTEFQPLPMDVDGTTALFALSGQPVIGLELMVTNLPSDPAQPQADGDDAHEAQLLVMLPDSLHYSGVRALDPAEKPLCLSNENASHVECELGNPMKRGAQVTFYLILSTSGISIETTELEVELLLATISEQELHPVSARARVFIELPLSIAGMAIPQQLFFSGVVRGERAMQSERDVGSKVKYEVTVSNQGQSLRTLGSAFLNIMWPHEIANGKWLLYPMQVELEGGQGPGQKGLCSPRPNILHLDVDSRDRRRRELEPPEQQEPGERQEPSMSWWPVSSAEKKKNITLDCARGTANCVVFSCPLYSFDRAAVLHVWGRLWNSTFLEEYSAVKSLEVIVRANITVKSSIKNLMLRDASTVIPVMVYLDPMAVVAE
# Run description: SPR
Kd listing for selected binders.
Provide only the numeric value, understood in nM.

Some binders with recorded Kd:
# Binder, Units symbol, Kd
measured = [
    ("Ab42 (antibody, human IgG1, V domains shown) VH: EVQLVQSGAEVKKPGSSVKVSCKASGYSFTRYWMHWVRQAPGQGLEWIGKIDPSDSETRLNQEFRDRATLTVDKSTSTAYMELSSLRSEDTAVYYCARGGYFGRQWYFDVWGQGTLVTVSS VL: DIVMTQSPLSLPVTPGEPASISCRSSQSLVHRNGNTYLHWYLQKPGQSPQLLIYEGSKRFSGVPDRFSGSGSGTDFTLKISRVEAEDVGVYFCAQSTQLPYTFGGGTKLEIK", "nM", 5.7),
    ("Ab35 (antibody, human IgG1, V domains shown) VH: EVQLVQSGAEVKKPGSSVKVSCKASGYSFTRYWMHWVRQAPGQGLEWIGKIDPSDSETRLNQEFRDRATLTVDKSTSTAYMELSSLRSEDTAVYYCARGGYFGENWYHDVWGQGTLVTVSS VL: DIVMTQSPLSLPVTPGEPASISCRSSQSLVHRNGNTYLHWYLQKPGQSPQLLIYEVSNRYSGVPDRFSGSGSGTDFTLKISRVEAEDVGVYFCAQSIQVPWTFGGGTKLEIK", "nM", 0.54),
    ("Ab40 (antibody, human IgG1, V domains shown) VH: EVQLVQSGAEVKKPGSSVKVSCKASGYSFTRYWMHWVRQAPGQGLEWIGKIDPSDSETRLNQEFRDRATLTVDKSTSTAYMELSSLRSEDTAVYYCARGGYFGEEWYHDVWGQGTLVTVSS VL: DIVMTQSPLSLPVTPGEPASISCRSSQSLVHRNGNTYLHWYLQKPGQSPQLLIYEGSKRFSGVPDRFSGSGSGTDFTLKISRVEAEDVGVYFCSQSTHVPWTFGGGTKLEIK", "nM", 0.94),
]

-- ask Would you mind telling me what Kd value was observed for Ab39 (antibody, human IgG1, V domains shown) VH: EVQLVQSGAEVKKPGSSVKVSCKASGYSFTRYWMHWVRQAPGQGLEWIGKIDPSDSETRLNQEFRDRATLTVDKSTSTAYMELSSLRSEDTAVYYCARGGYFGEEWYHDVWGQGTLVTVSS VL: DIVMTQSPLSLPVTPGEPASISCRSSQSLVHRNGNTYLHWYLQKPGQSPQLLIYKVSNRASGVPDRFSGSGSGTDFTLKISRVEAEDVGVYFCSQSTHVPWTFGGGTKLEIK ?
-- reply 1.57
